test: Evaluation 1 of curability (coating layer with trifunctional acrylate, UV exposure, no hydrogen donor); conditions: Exposure 400 mJ, nitrogen
Catalogue of compounds with associated Reaction rate (decrement of double bond)
Give the number; % is assumed, so skip it.

Please review the following examples before continuing.
Reaction rate (decrement of double bond) for "C=CC(=O)OCCOCCn1c(=O)c2ccccc2c2ccccc2c1=O" ?
21.4

Given the entry "C=COCCCn1c(=O)c2ccccc2c2ccccc2c1=O" , report its measured Reaction rate (decrement of double bond).
2.3

Give its Reaction rate (decrement of double bond) value. Item: "CC(=O)OCCN(CCn1c(=O)c2ccccc2c2ccccc2c1=O)C(C)=O"
6.4

Now for a further compound.
Which value of Reaction rate (decrement of double bond) has been reported for "C=CC(=O)OCCOCCOCCn1c(=O)c2ccccc2c2ccccc2c1=O" in the records?
1.2
